# TGT: IgE of patient serum 4
# ASSAY NOTES: ELISA inhibition, serum 4 pre-incubated with 1.25 µg/ml inhibitor; competitor: wt Mal d 1 adsorbed on wells

| BINDER | % inhibition of Mal d 1-IgE binding (%) |
| --- | --- |
| mixture of the two mutagenised allergens (mut Bet v 1-SEQ ID NO:6 and mut Mal d 1-SEQ ID NO:2) (protein) chain 1: HHHHHHGVFNYETETTSVIPAARLFKAFILDGDNLFPKVAPQAISSVENIEGNGGPGTIAKISFPEGFPFKYVKDRVDEVDHTNFKYNYSVIEGGPIGDTLEKISNEIKIVATPDGGSILAINNKYHTAGDHEVKAEQIKASKEMGETLLRAVESYLLAHSDAYN chain 2: HHHHHHGVYTFENEFTSEIPPSRLFKAFVLAADNLIPKIAPQAIKQAEILEGDGGPGTIKKITFGEGSQYGYVKHKIDSVDEAAYSYAYTLIEGDALTDTIEKVSYETKLVASGSGSIIKSISHYHTKGDVEIKEEHVKAGKEKAHGLFKLIESYLKGHPDAYN | 46 |
| mutant Bet v 1-Mal d 1 hybrid molecule (SEQ ID NO: 4) (protein) HHHHHHGVFNYETETTSVIPAARLFKAFILDGDNLFPKVAPQAISSVENIEGNGGPGTIAKISFPEGFPFKYVKDRVDEVDHTNFKYNYSVIEGGPIGDTLEKISNEIKIVATPDGGSILAINNKYHTAGDHEVKAEQIKASKEMGETLLRAVESYLLAHSDAYNEFGVYTFENEFTSEIPPSRLFKAFVLAADNLIPKIAPQAIKQAEILEGDGGPGTIKKITFGEGSQYGYVKHKIDSVDEAAYSYAYTLIEGDALTDTIEKVSYETKLVASGSGSIIKSISHYHTKGDVEIKEEHVKAGKEKAHGLFKLIESYLKGHPDAYN | 64.3 |
| wild-type Bet v 1-Mal d 1 hybrid molecule (SEQ ID NO: 3) (protein) HHHHHHGVFNYETETTSVIPAARLFKAFILDGDNLFPKVAPQAISSVENIEGNGGPGTIKKISFPEGFPFKYVKDRVDEVDHTNFKYNYSVIEGGPIGDTLEKISNEIKIVATPDGGSILKINNKYHTKGDHEVKAEQIKASKEMGETLLRAVESYLLAHSDAYNEFGVYTFENEFTSEIPPSRLFKAFVLDADNLIPKIAPQAIKQAEILEGDGGPGTIKKITFGEGSQYGYVKHKIDSVDEANYSYAYTLIEGDALTDTIEKVSYETKLVASGSGSIIKSISHYHTKGDVEIKEEHVKAGKEKAHGLFKLIESYLKGHPDAYN | 71.3 |

src = patent US20140294878A1
